Reported Max. specific activity, OHB values are given for each entry in this list.
- Protocol Text: OHB reductase activity, NADH absorption at 340 nm
- Format: biochemical
- Assay Context: E. coli Mdh mutants; measured at 20 mM OHB
Just the number in µmol/mg/min, nothing appended.

Past entries and their recorded results:
[
  {
    "Molecule": "R81A M85E I12V: E. coli malate dehydrogenase mutant, SEQ ID No. 110 (protein, listed as Escherichia coli) MKVAVLGAAGGVGQALALLLKTQLPSGSELSLYDIAPVTPGVAVDLSHIPTAVKIKGFSGEDATPALEGADVVLISAGVAAKPGEDRSDLFNVNAGIVKNLVQQVAKTCPKACIGIITNPVNTTVAIAAEVLKKAGVYDKNKLFGVTTLDIIRSNTFVAELKGKQPGEVEVPVIGGHSGVTILPLLSQVPGVSFTEQEVADLTKRIQNAGTEVVEAKAGGGSATLSMGQAAARFGLSLVRALQGEQGVVECAYVEGDGQYARFFSQPLLLGKNGVEERKSIGTLSAFEQNALEGMLDTLKKDIALGEEFVNK",
    "Unit Abbrev": "µmol/mg/min",
    "Max. specific activity, OHB": 12.54
  },
  {
    "Molecule": "R81A G179D: E. coli malate dehydrogenase mutant, SEQ ID No. 112 (protein, listed as Escherichia coli) MKVAVLGAAGGIGQALALLLKTQLPSGSELSLYDIAPVTPGVAVDLSHIPTAVKIKGFSGEDATPALEGADVVLISAGVAAKPGMDRSDLFNVNAGIVKNLVQQVAKTCPKACIGIITNPVNTTVAIAAEVLKKAGVYDKNKLFGVTTLDIIRSNTFVAELKGKQPGEVEVPVIGGHSDVTILPLLSQVPGVSFTEQEVADLTKRIQNAGTEVVEAKAGGGSATLSMGQAAARFGLSLVRALQGEQGVVECAYVEGDGQYARFFSQPLLLGKNGVEERKSIGTLSAFEQNALEGMLDTLKKDIALGEEFVNK",
    "Unit Abbrev": "µmol/mg/min",
    "Max. specific activity, OHB": 4.16
  },
  {
    "Molecule": "R81A 112V: E. coli malate dehydrogenase mutant, SEQ ID No. 115 as printed (protein, listed as Escherichia coli) MKVAVLGAAGGVGQALALLLKTQLPSGSELSLYDIAPVTPGVAVDLSHIPTAVKIKGFSGEDATPALEGADVVLISAGVAAKPGMDRSDLFNVNAGIVKNLVQQVAKTCPKACIGIITNPVNTTVAIAAEVLKKAGVYDKNKLFGVTTLDIIRSNTFVAELKGKQPGEVEVPVIGGHSGVTILPLLSQVPGVSFTEQEVADLTKRIQNAGTEVVEAKAGGGSATLSMGQAAARFGLSLVRALQGEQGVVECAYVEGDGQYARFFSQPLLLGKNGVEERKSIGTLSAFEQNALEGMLDTLKKDIALGEEFVNK",
    "Unit Abbrev": "µmol/mg/min",
    "Max. specific activity, OHB": 4.9
  },
  {
    "Molecule": "R81A G179D D86S: E. coli malate dehydrogenase mutant, SEQ ID No. 118 (protein, listed as Escherichia coli) MKVAVLGAAGGIGQALALLLKTQLPSGSELSLYDIAPVTPGVAVDLSHIPTAVKIKGFSGEDATPALEGADVVLISAGVAAKPGMSRSDLFNVNAGIVKNLVQQVAKTCPKACIGIITNPVNTTVAIAAEVLKKAGVYDKNKLFGVTTLDIIRSNTFVAELKGKQPGEVEVPVIGGHSDVTILPLLSQVPGVSFTEQEVADLTKRIQNAGTEVVEAKAGGGSATLSMGQAAARFGLSLVRALQGEQGVVECAYVEGDGQYARFFSQPLLLGKNGVEERKSIGTLSAFEQNALEGMLDTLKKDIALGEEFVNK",
    "Unit Abbrev": "µmol/mg/min",
    "Max. specific activity, OHB": 19
  },
  {
    "Molecule": "R81A: E. coli malate dehydrogenase mutant R81A, SEQ ID No. 102 (protein, listed as Escherichia coli) MDHRAMKVAVLGAAGGIGQALALLLKTQLPSGSELSLYDIAPVTPGVAVDLSHIPTAVKIKGFSGEDATPALEGADVVLISAGVAAKPGMDRSDLFNVNAGIVKNLVQQVAKTCPKACIGIITNPVNTTVAIAAEVLKKAGVYDKNKLFGVTTLDIIRSNTFVAELKGKQPGEVEVPVIGGHSGVTILPLLSQVPGVSFTEQEVADLTKRIQNAGTEVVEAKAGGGSATLSMGQAAARFGLSLVRALQGEQGVVECAYVEGDGQYARFFSQPLLLGKNGVEERKSIGTLSAFEQNALEGMLDTLKKDIALGEEFVNK",
    "Unit Abbrev": "µmol/mg/min",
    "Max. specific activity, OHB": 1.8
  }
]

The molecule R81A D86S: E. coli malate dehydrogenase mutant, SEQ ID No. 1114 as printed (protein, UniProt P61889 1-312, looked up, variant R81A D86S) Malate dehydrogenase: MKVAVLGAAGGIGQALALLLKTQLPSGSELSLYDIAPVTPGVAVDLSHIPTAVKIKGFSGEDATPALEGADVVLISAGVAAKPGMSRSDLFNVNAGIVKNLVQQVAKTCPKACIGIITNPVNTTVAIAAEVLKKAGVYDKNKLFGVTTLDIIRSNTFVAELKGKQPGEVEVPVIGGHSGVTILPLLSQVPGVSFTEQEVADLTKRIQNAGTEVVEAKAGGGSATLSMGQAAARFGLSLVRALQGEQGVVECAYVEGDGQYARFFSQPLLLGKNGVEERKSIGTLSAFEQNALEGMLDTLKKDIALGEEFVNK showed Max. specific activity, OHB equal to 14.6

The molecule R81A M85Q: E. coli malate dehydrogenase mutant, SEQ ID No. 104 (protein, listed as Escherichia coli) MKVAVLGAAGGIGQALALLLKTQLPSGSELSLYDIAPVTPGVAVDLSHIPTAVKIKGFSGEDATPALEGADVVLISAGVAAKPGQDRSDLFNVNAGIVKNLVQQVAKTCPKACIGIITNPVNTTVAIAAEVLKKAGVYDKNKLFGVTTLDIIRSNTFVAELKGKQPGEVEVPVIGGHSGVTILPLLSQVPGVSFTEQEVADLTKRIQNAGTEVVEAKAGGGSATLSMGQAAARFGLSLVRALQGEQGVVECAYVEGDGQYARFFSQPLLLGKNGVEERKSIGTLSAFEQNALEGMLDTLKKDIALGEEFVNK showed Max. specific activity, OHB equal to 4.99
